The following binders are shown together with reported koff values.
- SYSTEM_TESTED: T1, cynomolgus monkey serum albumin (cynomolgus monkey, UniProt A2V9Z4 25-608)
- T1 construct: bought protein, amine-coupled to a CM5 chip; also called Cyno SA
- TEST_DETAILS: SPR (Biacore 8K), albumin immobilised, 25 C, 1:1 kinetics
Dear colleague, please return just the value in s⁻¹, with no unit written.

The following binders have reported results that may help.
What value of koff has been reported for the following binder? INS Analog 30 (other, single-chain insulin B-L2-A-L1-VHH fusion; also called Ex. 30) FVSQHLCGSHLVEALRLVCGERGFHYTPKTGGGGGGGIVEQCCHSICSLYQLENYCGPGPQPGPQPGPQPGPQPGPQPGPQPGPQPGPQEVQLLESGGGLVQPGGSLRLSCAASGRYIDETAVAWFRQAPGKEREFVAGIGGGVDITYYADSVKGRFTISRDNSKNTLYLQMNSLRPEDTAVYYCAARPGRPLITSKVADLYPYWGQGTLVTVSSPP
0.00069

What value of koff has been reported for the following binder? INS Analog 29 (other, single-chain insulin B-L2-A-L1-VHH fusion; also called Ex. 29) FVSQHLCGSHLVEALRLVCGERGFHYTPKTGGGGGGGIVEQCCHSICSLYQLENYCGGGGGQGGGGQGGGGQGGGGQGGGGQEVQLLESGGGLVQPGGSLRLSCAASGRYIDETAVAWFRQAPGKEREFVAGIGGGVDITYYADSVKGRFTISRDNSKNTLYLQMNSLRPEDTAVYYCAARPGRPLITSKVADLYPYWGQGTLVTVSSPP
0.00078

As a next step, examine the binder that follows.
What value of koff has been reported for the following binder? INS Analog 25 (other, single-chain insulin B-L2-A-L1-VHH fusion; also called Ex. 25) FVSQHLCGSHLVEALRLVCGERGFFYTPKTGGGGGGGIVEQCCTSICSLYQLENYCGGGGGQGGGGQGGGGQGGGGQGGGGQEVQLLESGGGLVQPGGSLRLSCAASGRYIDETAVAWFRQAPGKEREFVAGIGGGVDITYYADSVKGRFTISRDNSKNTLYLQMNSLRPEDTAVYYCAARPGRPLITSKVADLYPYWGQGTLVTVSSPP
0.00079
